Value source: patent US12486253B2

The following compounds are shown together with reported DC50 values.
System Name: BRAF V600E (Homo sapiens, UniProt P15056, V600E)
Sequence (P15056 whole entry V600E): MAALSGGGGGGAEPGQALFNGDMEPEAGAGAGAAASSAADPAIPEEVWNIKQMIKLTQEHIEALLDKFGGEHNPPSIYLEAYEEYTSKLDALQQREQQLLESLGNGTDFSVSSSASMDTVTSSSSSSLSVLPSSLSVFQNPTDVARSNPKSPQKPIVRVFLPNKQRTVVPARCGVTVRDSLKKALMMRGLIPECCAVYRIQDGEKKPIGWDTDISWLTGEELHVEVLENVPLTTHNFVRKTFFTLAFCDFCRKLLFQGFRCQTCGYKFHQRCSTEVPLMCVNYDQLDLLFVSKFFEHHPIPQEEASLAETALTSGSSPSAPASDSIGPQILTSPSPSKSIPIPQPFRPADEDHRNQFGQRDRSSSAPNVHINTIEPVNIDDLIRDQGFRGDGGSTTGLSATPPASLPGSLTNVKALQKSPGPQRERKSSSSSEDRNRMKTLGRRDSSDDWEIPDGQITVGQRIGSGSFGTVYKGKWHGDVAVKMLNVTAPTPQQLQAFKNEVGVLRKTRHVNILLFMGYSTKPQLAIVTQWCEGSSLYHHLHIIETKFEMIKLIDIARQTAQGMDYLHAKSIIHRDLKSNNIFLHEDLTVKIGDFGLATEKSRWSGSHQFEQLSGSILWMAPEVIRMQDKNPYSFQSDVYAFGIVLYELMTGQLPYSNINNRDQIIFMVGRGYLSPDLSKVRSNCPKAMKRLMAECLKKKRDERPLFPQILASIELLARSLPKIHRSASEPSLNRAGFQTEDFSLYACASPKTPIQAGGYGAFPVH
Assay Details: HiBiT cellular BRAF^V600E degradation assay
Assay type: cell-based
Experimental Context: A375.10 cells, 24 h; concentration at which 50% of total cellular BRAF^V600E is degraded
Property Label: DC50 (µM)

[[record]]
compound = "CCN(C)S(=O)(=O)Nc1ccc(F)c(Oc2ccc3ncn([C@@H]4CCC5(CCN(C(=O)CN6CCC(c7ccc(N[C@@H]8CCC(=O)NC8=O)cc7F)CC6)CC5)C4)c(=O)c3c2)c1C#N [Example 44]"
system_name = "BRAF V600E (Homo sapiens, UniProt P15056, V600E)"
property_label = "DC50"
unit_descriptor = "µM"
observed_result = 0.0251

[[record]]
compound = "CCN(C)S(=O)(=O)Nc1ccc(F)c(Oc2ccc3ncn([C@H]4CCC5(CCN(C(=O)CN6CCC(c7cc(F)c(NC8CCC(=O)NC8=O)cc7F)CC6)CC5)C4)c(=O)c3c2)c1C#N (stereo partly shown) [Example 67]"
system_name = "BRAF V600E (Homo sapiens, UniProt P15056, V600E)"
property_label = "DC50"
unit_descriptor = "µM"
observed_result = 0.00531

[[record]]
compound = "CCN(C)S(=O)(=O)Nc1ccc(F)c(Oc2ccc3ncn([C@@H]4COC5(CCN(C(=O)CN6CCC(c7ccc(NC8CCC(=O)NC8=O)cc7F)CC6)CC5)C4)c(=O)c3c2Br)c1C#N (stereo partly shown) [Example 74]"
system_name = "BRAF V600E (Homo sapiens, UniProt P15056, V600E)"
property_label = "DC50"
unit_descriptor = "µM"
observed_result = 0.0315

[[record]]
compound = "CO[C@H]1CCN(S(=O)(=O)Nc2ccc(F)c(Oc3ccc4ncn(-c5cnc(N6CCN(C(=O)CN7CCC(c8ccc(N[C@@H]9CCC(=O)NC9=O)cc8F)CC7)CC6)nc5)c(=O)c4c3)c2C#N)C1 [Example 110]"
system_name = "BRAF V600E (Homo sapiens, UniProt P15056, V600E)"
property_label = "DC50"
unit_descriptor = "µM"
observed_result = 0.0425

[[record]]
compound = "Cn1nc(N2CCC(=O)NC2=O)c2cc(F)c(N3CCC(O)(CC(=O)N4CCC5(CC4)C[C@@H](n4cnc6ccc(Oc7c(F)ccc(NS(=O)(=O)C8CCCCC8)c7C#N)cc6c4=O)CO5)CC3)cc21 [Example 188]"
system_name = "BRAF V600E (Homo sapiens, UniProt P15056, V600E)"
property_label = "DC50"
unit_descriptor = "µM"
observed_result = 0.0406

[[record]]
compound = "CN(CCF)S(=O)(=O)Nc1ccc(F)c(Oc2ccc3ncn(-c4cnc(N5CCN(C(=O)CN6CCC(c7ccc(N[C@@H]8CCC(=O)NC8=O)cc7F)CC6)CC5)nc4)c(=O)c3c2)c1C#N [Example 120]"
system_name = "BRAF V600E (Homo sapiens, UniProt P15056, V600E)"
property_label = "DC50"
unit_descriptor = "µM"
observed_result = 0.0138

[[record]]
compound = "CCN(C)S(=O)(=O)Nc1ccc(F)c(Oc2ccc3ncn([C@H]4COC5(CCN(C(=O)CC6CCN(c7ccc(NC8CCC(=O)NC8=O)cc7F)CC6)CC5)C4)c(=O)c3c2)c1C#N (stereo partly shown) [Example 47]"
system_name = "BRAF V600E (Homo sapiens, UniProt P15056, V600E)"
property_label = "DC50"
unit_descriptor = "µM"
observed_result = 0.0257

